- TESTED_TARGET: T1, recombinant human CD3 epsilon/gamma heterodimer (human, UniProt P07766 23-126; P09693 23-116)
- T1 construct: Recombinant protein in solution (200-50 nM) in the Octet assay; also called hCD3 E/G
- T1 sequence (P07766 23-126, chain 1 of 2): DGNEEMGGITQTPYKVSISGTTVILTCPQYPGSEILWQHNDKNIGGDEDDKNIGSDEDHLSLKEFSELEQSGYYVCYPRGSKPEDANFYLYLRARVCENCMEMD
- T1 sequence (P09693 23-116, chain 2 of 2): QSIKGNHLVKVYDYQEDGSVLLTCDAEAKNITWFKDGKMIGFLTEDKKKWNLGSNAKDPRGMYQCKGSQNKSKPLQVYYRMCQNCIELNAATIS
- ASSAY_COMMENT: Octet BLI, mAb on FAB2G sensor, hCD3 E/G 200-50 nM; R^2 0.98
Parameter threshold = 0.8. Response is true (1) when Response meets or exceeds it, else false (0).

BINDER	LABEL_VALUE
ABL-CD3-34 (antibody, V domains shown, Chimeric hybridoma mAb: human V, CH1, upper hinge; mouse middle hinge, CH2, CH3) VH: EVHLVESGGGLVKPGGSLRLSCAASGFTFSRYSMNWVRQAPGKGLEWVSSISRSSSYIYYADSVKGRFTISRDNAKNSLYLQMNSLRAEDTAVYYCAREPRTLGMDYWGQGILVTVSS VL: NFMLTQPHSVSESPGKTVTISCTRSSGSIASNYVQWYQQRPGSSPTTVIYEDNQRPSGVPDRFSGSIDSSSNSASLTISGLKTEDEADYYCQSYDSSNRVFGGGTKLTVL	true (1)

Has ABL-CD3-38 (antibody, V domains shown, Chimeric hybridoma mAb: human V, CH1, upper hinge; mouse middle hinge, CH2, CH3) VH: QGQLQQWGAGLLKPSETLSLTCAVYGGSFSGYYWSWIRLPPGKGLEWIGEINHSGNTNYNPSLKSRVTISVDTSKNQFSLQLSSVTAADTAVYYCAKEVEIWGYFDYWGQGTLVTVSS VL: QSVLTQPPSVSGAPGQRVTISCTGSSSNIGAGYDVHWYQQLPGTAPKLLIYGNSNRPSGVPDRFSGSKSGTSASLAITGLQAEDETDYNCQSYDSSLSGYVFGTGTKVTVL a recorded Response greater than or equal to 0.8?
false (0)

Same for ABL-CD3-43 (antibody, V domains shown, Chimeric hybridoma mAb: human V, CH1, upper hinge; mouse middle hinge, CH2, CH3) VH: EVQLVQSGAEVKKPGESLKISCKGSEYSFTTYWIAWVRQMPGKGLEWMGIIYPGDSDTTYSPSFQGQVTISADKSISIAFLQWSSLKASDTAMYYCARQGELDAFDIWGQGTMVTVSS VL: QSALTQPASVSGSPGQSITISCTGTSSDVGSYNLVSWYQQHPGKAPKLMIYEDIRRPSGVSNRFSASKSGDTASLTISGLQAEDEADYYCCSYAGSTTFAIFGGGTKLTVL
false (0)

Same for ABL-CD3-63 (antibody, V domains shown, Chimeric hybridoma mAb: human V, CH1, upper hinge; mouse middle hinge, CH2, CH3) VH: QVQLQESGPGLVKPSETLSLTCTVSGGSISSYYWSWIRQPAGKGLEWIGRIYTSGSTKYNPSLKSRVTMSVDTSKNQFSLKLISVTAADTAVYFCARERIRDLYFDYWGQGTLVTVSS VL: NFMLTQPHSVSESPGKTVTISCTRTSGSIASNYVQWYQQRPGSSPTTVIYEDNQRPSGVPDRFSGSIDSSSNSASLTISGLKTEDEAAYYCQSYDRSNRVFGGGTKLTVL
false (0)
